Cited source for all entries: PubChem BioAssay (NCI)

system: HT29 colon; assay: NCI-60 one-dose screen, 48 h; conditions: 10 µM unless noted
The panel holds about 83,000 compounds, 20% with a hit somewhere; the sample as a whole holds those more often. Activity calls are given as the source filed them. How the source made its calls: active means growth percent below 10; inactive means the rest.
Lab note: assign the record to one of active, inactive

Task item: Any idea what this test logged for C=C1CCC2C3(C)COC(c4ccc(F)cc4)OC3CCC2(C)C1C/C=C1/C(=O)OCC1O (configuration not stated) ?
Reply: active

Task item: Repeat for the following molecule: C=C1CC[C@@H]2[C@]3(C)COC(c4cn[nH]c4-c4cccc(Br)c4)O[C@@H]3CC[C@@]2(C)[C@@H]1C/C=C1/C(=O)OCC1O (some centres not stated)
Reply: active

Task item: Further, for `Cc1ccc2c(N)c(C(=O)Nc3ccc(-c4ccccc4)cc3)sc2n1` ?
Reply: inactive

Task item: For CC12CC[C@@H]3[C@]4(C)COC(c5cn[nH]c5-c5cccc(Br)c5)O[C@@H]4CC[C@@]3(C)[C@@H]1CC(C1=CCOC1=O)O2 (some centres not stated) then?
Reply: inactive

Task item: Same for CN(C)c1nc(NCCNS(=O)(=O)c2ccc(C3=Nc4c(N)nc(N)nc4NC(c4ccccc4)C3)cc2)nc(Nc2ccc(F)cc2)n1 (configuration not stated)
Reply: inactive

Task item: Another: `COc1ccc(-c2nc(SCC(C)C)nc(NCCc3c[nH]c4ccccc34)c2C#N)cc1`
Reply: inactive

Task item: Then what about the molecule `Cn1cc(-c2cc3nc(-c4c[nH]c5ccc(Cl)cc45)cc(N)n3n2)c2ccccc21` ?
Reply: active

----------
system: IGROV1 ovarian; test: NCI-60 one-dose screen, 48 h; conditions: 10 µM unless noted
The panel holds about 83,000 compounds, 20% with a hit somewhere; the sample as a whole holds those more often. Calls of active or inactive are those of the source. The calls were made as follows: active = growth percent below 10; inactive = the rest.
Can you answer with just one of these options? true (active), false (inactive)

Task item: Tell me the assay call for `COc1ccc2[nH]cc(-c3nnc(N)nc3-c3c[nH]c4ncc(Br)cc34)c2c1` please.
Reply: false

Task item: What would you report for `CN1CCc2c(sc3ncnc(N/N=C/c4ccc(Cl)cc4Cl)c23)C1` ?
Reply: false

Task item: Record: `Cc1ccc(/C=C/c2n(Cc3ccc4ccccc4c3)c3ccccc3[n+]2Cc2ccc3ccccc3c2)cc1`
Reply: true

Task item: Same read-out for `O=S(=O)(Nc1cccc(-n2cnc3cc(-c4ccc(O)cc4)ccc32)c1)C1CC1` ?
Reply: false

Task item: Would you mind doing `CCCCSc1nc(Nc2ccc(S(N)(=O)=O)cc2)c(C#N)c(-c2cc(OC)c(OC)c(OC)c2)n1` as well?
Reply: false

Task item: Repeat for the following compound: `CCCCCCCCc1ccc(C(=O)Nc2cccc(P(=O)(O)O)c2)cc1`
Reply: false

Task item: CC(=O)OC[C@@]1(C)C2CC[C@]3(C)C(CC=C4C5CC(C)(C)CC[C@]5(C(=O)Nc5cccc(C)c5)CC[C@]43C)[C@@]2(C)C[C@@H](OC(C)=O)[C@@H]1OC(C)=O (some centres not stated) ?
Reply: false

----------
system: SR leukemia; experiment: NCI-60 one-dose screen, 48 h (100 = growth as untreated, 0 = no growth, -100 = all killed); settings: 10 µM unless noted
Compounds without any hit were thinned out: in the full panel of roughly 83,000, 20% have a hit.
QUANTITY_KIND: growth (%)
Number in %, nothing else.

Task item: Record request: growth value, item `CCCCSc1nc(NCCc2c[nH]c3ccccc23)c(C#N)c(-c2ccc(OC)cc2)n1`
Reply: 5.98

Task item: COC(=O)/C=C/c1cccc2c1C(=O)NC(C)(c1cc3cc4ccccc4cc3oc1=O)N2 (stereo not given) ?
Reply: 28

Task item: Also need COC(OC)C1=C(C)OC(N)=C(C#N)C12C(=O)Nc1ccccc12 (stereo not given) , thanks.
Reply: 73

Task item: Now try `O=C(COc1ccc(NC(=O)Nc2ccc(Cl)c(Cl)c2)cc1)N=Nc1c(O)[nH]c2ccc([N+](=O)[O-])cc12` .
Reply: 25.5

Task item: Also check CCOC(=O)C1=C(N)N(c2ccccc2)C2=C(C(=O)CC(C)(C)C2)C1c1ccc(N2CCOCC2)cc1 (stereo not given)
Reply: 83.8

----------
tested on: MCF7 breast; experiment: NCI-60 one-dose screen, 48 h (100 = growth as untreated, 0 = no growth, -100 = all killed); details: 10 µM unless noted
About 83,000 compounds went through this panel and 20% of them were active in at least one assay; those are over-represented in the sample as a whole.
Classification field: YES = growth at or over 30%; NO = growth under 30%.

Task item: Form field: growth at least 30%? Entry: `COC1=C[C@]23CCC(=O)N2CCc2cc4c(cc2[C@@H]3[C@@H]1OC(=O)[C@H](C)O)OCO4`
Reply: NO

Task item: Record: `Cc1cc(C)cc(C(=O)Nc2cccc(-c3cn(-c4ccc(S(N)(=O)=O)cc4)nn3)c2)c1`
Reply: YES

Task item: Please give the result for `O=C(/C=C/c1cccc(OCc2ccc(F)cc2)c1)c1nc2ccccc2[nH]1` too.
Reply: NO

Task item: Entry to check: `O=C(/C=C/c1ccc(-c2ccccc2)cc1)c1nc2ccccc2n1Cc1ccc(F)cc1`
Reply: NO

Task item: Now this one: C=C1CCC2C3(C)COC(c4cccs4)OC3CCC2(C)C1CC(Sc1ccccc1)C1=CCOC1=O (stereo unspecified)
Reply: YES

Task item: Also `O=c1c2ccccc2nc(-c2ccccc2)n1/N=C/c1ccc2ccccc2c1` , if possible.
Reply: YES

----------
I'd be grateful if you could share measured growth for these entries.
test system: RXF 393 renal; experiment: NCI-60 one-dose screen, 48 h (100 = growth as untreated, 0 = no growth, -100 = all killed); conditions: 10 µM unless noted
This is part of a sample that, as a whole, favours compounds with a hit. Of some 83,000 tested, about 20% had one in any assay. Calls of active or inactive are those of the source. The calls were made as follows: active = growth percent below 10; inactive = the rest.

Task item: Could you share which growth value was measured for COc1ccc(CCC2c3c(cc4c(c3OC)OCO4)CCN2C)cc1 (stereo not given) ?
Reply: -35% (active)

Task item: Also `O=C(NN1C(=O)/C(=C/C=C/c2ccc([N+](=O)[O-])o2)SC1=S)c1ccccc1O` ?
Reply: -94.5% (active)

Task item: Input `Cc1c(C(=O)NNC(=O)Nc2ccc(Cl)cc2)nnn1-c1ccc(Br)cc1`
Reply: 90.5% (inactive)

Task item: And COc1ccc(C2=NN(c3ccccc3)C(c3ccc(OCc4ccccc4)c(OC)c3)C2)cc1OC (stereo not given) ?
Reply: 86.2% (inactive)

Task item: Can you handle `COc1ccc(-c2nc3ccc(C(=O)NN4C(=O)c5ccc([N+](=O)[O-])cc5C4=O)cc3[nH]2)cc1` next?
Reply: 68.4% (inactive)

----------
test system: ACHN renal; assay: NCI-60 one-dose screen, 48 h (100 = growth as untreated, 0 = no growth, -100 = all killed); conditions: 10 µM unless noted
The panel holds about 83,000 compounds, 20% with a hit somewhere; the sample as a whole holds those more often. Calls of active or inactive are those of the source. How the source made its calls: active means growth percent below 10; inactive means the rest.
Please provide measured growth for the entries that follow.

Task item: Which measured growth belongs to `CCCCCCCCc1ccc(C(=O)Nc2cccc(P(=O)(O)O)c2)cc1` , tested on ACHN renal?
Reply: 110% (inactive)

Task item: Item: `O=C(/C=C/c1cccc(OCc2ccccc2)c1)c1nc2ccccc2[nH]1`
Reply: 62.5% (inactive)

Task item: Follow-up entry: `O=C(COc1ccc(NC(=O)Nc2ccc(Cl)cc2)cc1)N/N=C/c1ccccc1`
Reply: -77.4% (active)

----------
system: TK-10 renal; test: NCI-60 one-dose screen, 48 h; conditions: 10 µM unless noted
The panel holds about 83,000 compounds, 20% with a hit somewhere; the sample as a whole holds those more often. Activity calls are given as the source filed them. How the source made its calls: active means growth percent below 10; inactive means the rest.
Returns: one label drawn from active, inactive

Task item: I would be grateful if you could indicate the recorded call for `CCCCSc1nc(NCCc2c[nH]c3ccccc23)c(C#N)c(-c2ccccc2)n1` .
Reply: inactive

Task item: Another molecule to check: Cc1sc(C(NC(=O)OCCn2c([N+](=O)[O-])cnc2C)C(F)(F)Cl)nc1-c1ccc(OC(F)(F)F)cc1 (stereo not given)
Reply: active

Task item: // query: `Cn1cc(-c2nc(N)nnc2-c2c[nH]c3ccc(F)cc23)c2cc(Br)cnc21`
Reply: inactive

Task item: Record: Cc1sc2c(c1C)C(c1ccc(Cl)cc1)=N[C@@H](CC(=O)NCCCCCNC(=O)COc1ccc(C3CCC(=O)NC3=O)cc1)c1nnc(C)n1-2 (stereo not given in full)
Reply: active

Task item: Similarly, Cc1ccccc1[C@H]1C(C(=O)c2ccc(Cl)cc2)C2(N[C@@H]1c1ccccc1)C(=O)Nc1ccc(Cl)cc12 (stereo not given in full) ?
Reply: active

Task item: Param item: `CCCCSc1nc(NCCc2c[nH]c3ccccc23)c(C#N)c(-c2ccc(OC)cc2)n1`
Reply: inactive

Task item: For `CCCSc1nc(NCCc2c[nH]c3ccccc23)c(C#N)c(-c2ccc(F)cc2)n1` then?
Reply: inactive

Task item: What do we get for `Cc1ccc2c(N)c(C(=O)Nc3ccc(OC(F)(F)F)cc3)sc2n1` ?
Reply: inactive

Task item: Another molecule: `COc1ccccc1/C=C/C(=O)c1ccc(OC)c(S(N)(=O)=O)c1`
Reply: inactive

Task item: Would you kindly repeat that for `COc1ccc(C(=O)/C=C/c2ccc(Cl)c(Cl)c2)cc1S(N)(=O)=O` ?
Reply: active
